- measurement target: Androgen receptor (Homo sapiens)
- Sequence (whole entry): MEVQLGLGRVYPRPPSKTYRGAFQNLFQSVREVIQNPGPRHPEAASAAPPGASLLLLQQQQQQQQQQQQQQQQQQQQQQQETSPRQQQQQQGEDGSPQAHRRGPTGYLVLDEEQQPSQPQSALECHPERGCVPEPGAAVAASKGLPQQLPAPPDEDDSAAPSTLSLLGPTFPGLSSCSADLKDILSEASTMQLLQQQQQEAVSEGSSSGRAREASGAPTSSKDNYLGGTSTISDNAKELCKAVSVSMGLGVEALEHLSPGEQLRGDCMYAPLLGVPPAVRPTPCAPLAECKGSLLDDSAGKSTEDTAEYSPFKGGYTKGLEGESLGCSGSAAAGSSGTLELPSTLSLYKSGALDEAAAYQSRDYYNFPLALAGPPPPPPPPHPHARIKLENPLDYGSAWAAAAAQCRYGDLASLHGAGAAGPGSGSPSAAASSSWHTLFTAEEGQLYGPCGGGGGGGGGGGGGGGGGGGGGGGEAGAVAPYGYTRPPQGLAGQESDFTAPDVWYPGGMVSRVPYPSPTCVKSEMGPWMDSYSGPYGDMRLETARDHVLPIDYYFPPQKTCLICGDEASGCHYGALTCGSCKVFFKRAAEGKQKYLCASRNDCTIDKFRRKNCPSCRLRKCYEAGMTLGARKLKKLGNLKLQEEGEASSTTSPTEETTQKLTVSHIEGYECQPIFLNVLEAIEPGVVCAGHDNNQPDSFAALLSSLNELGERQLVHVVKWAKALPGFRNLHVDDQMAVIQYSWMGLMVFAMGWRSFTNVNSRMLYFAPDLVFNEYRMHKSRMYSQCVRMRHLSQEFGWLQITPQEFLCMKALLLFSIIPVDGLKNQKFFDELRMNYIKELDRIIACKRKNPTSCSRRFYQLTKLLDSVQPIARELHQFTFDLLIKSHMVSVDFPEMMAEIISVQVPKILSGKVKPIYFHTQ
- method summary: Induction of androgen receptor degradation in human VCaP cells at 0.1 uM after 24 hrs by Western blotting analysis relative to control
- Assay type: cell-based
experimental readout: Activity

compound="C[C@H]1CC2(CCN(c3ccc(C(=O)N4CC(N5CCN(c6ccc7c(c6)C(=O)N(C6CCC(=O)NC6=O)C7=O)CC5)C4)cc3)CC2)CN1c1ccc(C#N)c(Cl)c1 (stereo partly drawn)" experimental_readout=Activity measured_value="> 95%"
compound="N#Cc1ccc(N2CCC3(CCN(c4ccc(C(=O)N5CCC6(C5)CN(C5CCN(c7ccc8c(c7)C(=O)N(C7CCC(=O)NC7=O)C8=O)CC5)C6)cc4)CC3)C2)cc1Cl (stereo not drawn)" experimental_readout=Activity measured_value=60%

Respond only with Activity recorded for C[C@H]1CC2(CCN(c3ccc(C(=O)N4CCC(CN5CCN(c6ccc7c(c6)C(=O)N(C6CCC(=O)NC6=O)C7=O)CC5)CC4)cc3)CC2)CN1c1ccc(C#N)c(Cl)c1 (stereo partly drawn)
> 95%

* * *

- method summary: Drug concentration in ICR mouse plasma at 10 mg/kg, po measured after 3 hrs
- Format: ADME, organism-based
The following molecules are shown together with reported concentration at 3 h values.
Expressed in ng/mL, but write only the number.

Please review the entries below; each comes with its answer.
molecule="C[C@H]1CC2(CCN(c3ccc(C(=O)N4CCN(C5CN(c6ccc7c(c6)C(=O)N(C6CCC(=O)NC6=O)C7=O)C5)CC4)cc3)CC2)CN1c1ccc(C#N)c(C(F)(F)F)c1 (stereo partly drawn)" display_unit=ng/mL measured_value=56
molecule="C[C@H]1CC2(CCN(c3ccc(C(=O)N4CCN(C5CN(c6ccc7c(c6)C(=O)N(C6CCC(=O)NC6=O)C7=O)C5)CC4)cc3)CC2)CN1c1ccc(C#N)c(Cl)c1 (stereo partly drawn)" display_unit=ng/mL measured_value=664

# context switch: different molecule, same concentration at 3 h
Respond only with concentration at 3 h recorded for C[C@H]1CC2(CCN(c3ccc(C(=O)N4CCN(C5CN(c6ccc7c(c6)C(=O)N(C6CCC(=O)NC6=O)C7=O)C5)CC4)cc3)CC2)CN1c1cnc(C#N)c(C(F)(F)F)c1 (stereo partly drawn)
678

The reported numbers originate from ChEMBL document CHEMBL5331127.
